- TESTED SYSTEM: T1, EphA2 extracellular domain fused to the Fc portion of an antibody (EphA2-Fc)
- T1 construct: extracellular domain; Immobilized on the ELISA wells; also called immobilized EphA2
- T1 sequence (P29317 whole entry, the tested form may be a part): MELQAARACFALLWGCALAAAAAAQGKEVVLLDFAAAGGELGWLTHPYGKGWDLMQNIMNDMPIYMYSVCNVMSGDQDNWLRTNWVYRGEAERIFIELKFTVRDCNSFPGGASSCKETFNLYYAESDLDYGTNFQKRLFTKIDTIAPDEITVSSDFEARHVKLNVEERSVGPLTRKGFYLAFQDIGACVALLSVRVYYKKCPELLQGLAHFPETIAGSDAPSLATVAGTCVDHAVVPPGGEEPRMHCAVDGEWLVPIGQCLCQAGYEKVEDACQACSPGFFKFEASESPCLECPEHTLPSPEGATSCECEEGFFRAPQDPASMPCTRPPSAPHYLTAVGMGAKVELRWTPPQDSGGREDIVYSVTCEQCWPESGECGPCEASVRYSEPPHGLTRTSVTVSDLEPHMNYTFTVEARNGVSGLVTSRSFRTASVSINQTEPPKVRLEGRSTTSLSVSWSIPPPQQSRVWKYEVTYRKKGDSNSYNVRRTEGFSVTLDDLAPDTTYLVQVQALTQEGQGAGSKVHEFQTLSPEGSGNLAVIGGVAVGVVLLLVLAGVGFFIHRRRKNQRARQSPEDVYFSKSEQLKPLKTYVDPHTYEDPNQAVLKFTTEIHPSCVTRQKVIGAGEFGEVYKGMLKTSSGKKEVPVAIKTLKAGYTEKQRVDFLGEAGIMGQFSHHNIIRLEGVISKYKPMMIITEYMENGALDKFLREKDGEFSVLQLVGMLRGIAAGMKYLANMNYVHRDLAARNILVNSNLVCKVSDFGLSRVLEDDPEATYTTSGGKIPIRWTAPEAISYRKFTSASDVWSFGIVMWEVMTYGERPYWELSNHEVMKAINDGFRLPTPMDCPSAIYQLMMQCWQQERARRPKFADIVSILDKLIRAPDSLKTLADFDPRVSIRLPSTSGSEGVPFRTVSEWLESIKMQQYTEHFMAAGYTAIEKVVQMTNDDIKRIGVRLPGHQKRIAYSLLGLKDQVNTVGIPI
- ASSAY OVERVIEW: ELISA, inhibition of ephrinA5-AP binding to immobilized EphA2-Fc; representative experiment, triplicates
Where no end group is shown, it is not given here. The star is where a group is joined. Biotin = O=C1N[C@H]2[C@H](CS[C@H]2CCCCC(=O)*)N1; Cam = NC(=O)C*
VALUE KIND: pIC50
Scale for pIC50: -log10 of concentration given in mol/L; no unit attached.

# input Identify the reported pIC50 for the following entry. C(Cam)GAWLAYPDSVPYRPK(Biotin) (also called monomer (10); monomeric peptide (10)) [CcamGA-WLA-YRPK-bio]
# output 7.66

Measured values drawn from patent US20230391826A1 for this set.
